# TESTED ON: ScCyk3
# PROTOCOL DESCRIPTION: SPOT peptide array binding signal intensity (averaged, normalized) (arbitrary units (background-subtracted, floor 0; scale differs between SH3 domains)); higher = stronger binding of the SH3 domain to the peptide
READOUT LABEL: SPOT peptide array binding signal intensity
Output: the number by itself.

# annotated cases, reported SPOT peptide array binding signal intensity shown
Qu. Need SPOT peptide array binding signal intensity of KRKRRLPVSEDTNTK , thanks.
Ans. 143

Qu. Data request, read-out SPOT peptide array binding signal intensity, for PLRRTVMSLPGNHDI
Ans. 15

Qu. Given the entry GRLRPKRIAPWHLIQ , report its measured SPOT peptide array binding signal intensity.
Ans. 242

Qu. // query SPOT peptide array binding signal intensity value for entry VPPVPLPFGIPPFPM
Ans. 2.5

New cases:
Qu. I am curious: what SPOT peptide array binding signal intensity value has been reported for RRRDFGAPANKRPRR ?
Ans. 100

Qu. Could you share which SPOT peptide array binding signal intensity value was measured for KRRAPPPVPKKPSSR ?
Ans. 13
